measured on: Oncostatin M (OSM, rhOSM) (Homo sapiens)
Sequence (P13725 26-212): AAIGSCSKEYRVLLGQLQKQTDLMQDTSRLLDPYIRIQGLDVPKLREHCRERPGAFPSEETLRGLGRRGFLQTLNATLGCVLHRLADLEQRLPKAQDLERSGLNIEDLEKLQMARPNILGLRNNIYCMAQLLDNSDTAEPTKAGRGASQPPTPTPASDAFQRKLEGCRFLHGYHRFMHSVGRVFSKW
measured parameter: pKd
Expect pKd as a plain number equal to -log10 of the molar concentration.

// query pKd value for entry O=C(O)/C=C/c1cc(-c2ccc3c(c2)OCO3)c(-c2ccc3c(c2)OCO3)o1 [OSM-SMI-10B]
4.91
